experiment: Cytotoxicity against human HeLa cells after 72 hrs by MTT assay; format: cell-based; details: HeLa cells
The compounds listed here are annotated with their GI50 at 72 h.

Please review the entries below; each comes with its answer.
CC(=O)O[C@H]1C(=O)[C@@]2(C)[C@H]([C@H](OC(=O)c3ccccc3)[C@]3(O)C[C@H](OC(=O)[C@H](O)[C@@H](NC(=O)c4ccccc4)c4ccccc4)C(C)=C1C3(C)C)[C@]1(OC(C)=O)CO[C@@H]1C[C@@H]2O [PACLITAXEL] = 0.005 µg/mL
O=C(/C=C\c1ccc(Cl)cc1Cl)N1N=C(c2ccncc2)OC1c1c[nH]c2ccccc12 (configuration not stated) = 29.3 µg/mL

For Cc1ccc(/C=C\C(=O)N2N=C(c3ccncc3)OC2c2c[nH]c3ccccc23)cc1 (configuration not stated) , what is its reported GI50 at 72 h?
> 30 µg/mL

For O=C(/C=C\c1ccccc1F)N1N=C(c2ccncc2)OC1c1c[nH]c2ccccc12 (configuration not stated) , what is its reported GI50 at 72 h?
> 30 µg/mL

For O=C(/C=C\c1ccccc1[N+](=O)[O-])N1N=C(c2ccncc2)OC1c1c[nH]c2ccccc12 (configuration not stated) , what is its reported GI50 at 72 h?
> 30 µg/mL

For O=C(/C=C\c1cccc(F)c1)N1N=C(c2ccncc2)OC1c1c[nH]c2ccccc12 (configuration not stated) , what is its reported GI50 at 72 h?
> 30 µg/mL

For O=C(/C=C\c1ccc(F)cc1)N1N=C(c2ccncc2)OC1c1c[nH]c2ccccc12 (configuration not stated) , what is its reported GI50 at 72 h?
> 30 µg/mL

For O=C(/C=C\c1cccc([N+](=O)[O-])c1)N1N=C(c2ccncc2)OC1c1c[nH]c2ccccc12 (configuration not stated) , what is its reported GI50 at 72 h?
> 30 µg/mL

For O=C(/C=C\c1cccc(Cl)c1)N1N=C(c2ccncc2)OC1c1c[nH]c2ccccc12 (configuration not stated) , what is its reported GI50 at 72 h?
> 30 µg/mL

For O=C(/C=C\c1ccc(O)cc1)N1N=C(c2ccncc2)OC1c1c[nH]c2ccccc12 (configuration not stated) , what is its reported GI50 at 72 h?
> 30 µg/mL

For O=C(/C=C\c1ccccc1Cl)N1N=C(c2ccncc2)OC1c1c[nH]c2ccccc12 (configuration not stated) , what is its reported GI50 at 72 h?
> 30 µg/mL

For O=C(/C=C\c1ccccc1O)N1N=C(c2ccncc2)OC1c1c[nH]c2ccccc12 (configuration not stated) , what is its reported GI50 at 72 h?
26.8 µg/mL

For O=C(/C=C/c1c(Cl)cccc1Cl)N1N=C(c2ccncc2)OC1c1c[nH]c2ccccc12 (configuration not stated) , what is its reported GI50 at 72 h?
> 30 µg/mL

For O=C(/C=C\c1ccc(Cl)cc1)N1N=C(c2ccncc2)OC1c1c[nH]c2ccccc12 (configuration not stated) , what is its reported GI50 at 72 h?
> 30 µg/mL

---

tested on: Pseudomonas fluorescens; experiment: Antibacterial activity against Pseudomonas fluorescens NCIM 2036 after 8 hrs; type: functional, organism-based; details: NCIM 2036, 8 h
recordedMetric: IC50

O=C(/C=C\c1ccc(Cl)cc1)N1N=C(c2ccncc2)OC1c1c[nH]c2ccccc12 (stereo not drawn) = > 256 µg/mL

For O=C(/C=C\c1ccc(Cl)cc1Cl)N1N=C(c2ccncc2)OC1c1c[nH]c2ccccc12 (stereo not drawn) , what is its reported IC50?
> 256 µg/mL

For O=C(/C=C\c1cccc(F)c1)N1N=C(c2ccncc2)OC1c1c[nH]c2ccccc12 (stereo not drawn) , what is its reported IC50?
> 256 µg/mL

Cited source: ChEMBL document CHEMBL3779770
